Ref: ChEMBL document CHEMBL3217501

# System: A549
# assay_summary: Cytotoxicity against human A549 cells assessed as growth inhibition after 48 hrs by SRB assay
# Type: functional, cell-based
# reported_conditions: A549, 48 h
Some compounds, each annotated with its measured IC50.
assay_readout: IC50

{"smiles_entry": "CCOC(=O)/C(=C/c1ccc(Br)cc1)Cn1cnnn1", "reported": "4.78 µM"}
{"smiles_entry": "COC(=O)Nc1nc2cc(C(=O)c3cccs3)ccc2[nH]1", "reported": "< 0.1 µM"}
{"smiles_entry": "CCOC(=O)/C(=C/c1ccc(Cl)cc1)Cn1cnnn1", "reported": "3.18 µM"}
{"smiles_entry": "N#C/C(=C\\c1ccc(C(F)(F)F)cc1)Cn1cnnn1", "reported": "3.51 µM"}
{"smiles_entry": "COc1cc([C@@H]2c3cc4c(cc3[C@H](O)[C@H]3COC(=O)[C@H]23)OCO4)cc(OC)c1OC", "reported": "< 0.1 µM"}
{"smiles_entry": "COC(=O)/C(=C/c1ccc(OC)cc1)Cn1cnnn1", "reported": "3.83 µM"}
{"smiles_entry": "COC(=O)/C(=C/c1ccc(C)cc1)Cn1cnnn1", "reported": "16 µM"}
{"smiles_entry": "COC(=O)/C(=C/c1ccc(F)cc1)Cn1cnnn1", "reported": "6.9 µM"}
{"smiles_entry": "Cc1ccc(/C=C(\\C#N)Cn2cnnn2)cc1", "reported": "7.95 µM"}
{"smiles_entry": "N#C/C(=C\\c1ccccc1)Cn1cnnn1", "reported": "9.99 µM"}
{"smiles_entry": "COC(=O)/C(=C/c1ccccc1[N+](=O)[O-])Cn1cnnn1", "reported": "6.88 µM"}
{"smiles_entry": "COC(=O)/C(=C/c1ccccc1)Cn1cnnn1", "reported": "7.91 µM"}
{"smiles_entry": "COC(=O)/C(=C/c1ccc([N+](=O)[O-])cc1)Cn1cnnn1", "reported": "2.84 µM"}
{"smiles_entry": "Cc1nnnn1C/C(C#N)=C/c1ccc(F)cc1", "reported": "6.4 µM"}
{"smiles_entry": "COc1ccc(/C=C(\\C#N)Cn2cnnn2)cc1", "reported": "23.8 µM"}
{"smiles_entry": "N#C/C(=C\\c1cccc2ccccc12)Cn1cnnn1", "reported": "5.7 µM"}
{"smiles_entry": "CCOC(=O)/C(=C/c1ccccc1Br)Cn1cnnn1", "reported": "5.94 µM"}
{"smiles_entry": "Cc1nnnn1C/C(C#N)=C/c1cccc2ccccc12", "reported": "2.95 µM"}

====

# Tested on: DU-145
# assay_summary: Cytotoxicity against human DU145 cells assessed as growth inhibition after 48 hrs by SRB assay
# Assay type: functional, cell-based
# reported_conditions: DU-145, 48 h
pIC50: −log10 of the molar value.

{"smiles_entry": "Cc1nnnn1C/C(C#N)=C/c1ccc(F)cc1", "qualifier_symbol": "=", "pIC50": 5.14}
{"smiles_entry": "COc1cc([C@@H]2c3cc4c(cc3[C@H](O)[C@H]3COC(=O)[C@H]23)OCO4)cc(OC)c1OC", "qualifier_symbol": ">", "pIC50": 7.00}
{"smiles_entry": "N#C/C(=C\\c1ccc(C(F)(F)F)cc1)Cn1cnnn1", "qualifier_symbol": "=", "pIC50": 5.23}
{"smiles_entry": "COc1ccc(/C=C(\\C#N)Cn2cnnn2)cc1", "qualifier_symbol": "=", "pIC50": 4.71}
{"smiles_entry": "CCOC(=O)/C(=C/c1ccccc1Br)Cn1cnnn1", "qualifier_symbol": "=", "pIC50": 5.11}
{"smiles_entry": "COC(=O)/C(=C/c1ccc([N+](=O)[O-])cc1)Cn1cnnn1", "qualifier_symbol": "=", "pIC50": 5.26}
{"smiles_entry": "COC(=O)/C(=C/c1ccc(C)cc1)Cn1cnnn1", "qualifier_symbol": "=", "pIC50": 5.07}
{"smiles_entry": "COC(=O)Nc1nc2cc(C(=O)c3cccs3)ccc2[nH]1", "qualifier_symbol": ">", "pIC50": 7.00}
{"smiles_entry": "COC(=O)/C(=C/c1ccccc1)Cn1cnnn1", "qualifier_symbol": "=", "pIC50": 5.04}
{"smiles_entry": "CCOC(=O)/C(=C/c1ccc(Cl)cc1)Cn1cnnn1", "qualifier_symbol": "=", "pIC50": 5.07}
{"smiles_entry": "CCOC(=O)/C(=C/c1ccc(Br)cc1)Cn1cnnn1", "qualifier_symbol": "=", "pIC50": 5.26}
{"smiles_entry": "Cc1nnnn1C/C(C#N)=C/c1cccc2ccccc12", "qualifier_symbol": "=", "pIC50": 5.24}
{"smiles_entry": "COC(=O)/C(=C/c1ccccc1[N+](=O)[O-])Cn1cnnn1", "qualifier_symbol": "=", "pIC50": 4.99}
{"smiles_entry": "Cc1ccc(/C=C(\\C#N)Cn2cnnn2)cc1", "qualifier_symbol": "=", "pIC50": 5.14}
{"smiles_entry": "N#C/C(=C\\c1cccc2ccccc12)Cn1cnnn1", "qualifier_symbol": "=", "pIC50": 5.13}
{"smiles_entry": "COC(=O)/C(=C/c1ccc(F)cc1)Cn1cnnn1", "qualifier_symbol": "=", "pIC50": 5.07}
{"smiles_entry": "N#C/C(=C\\c1ccccc1)Cn1cnnn1", "qualifier_symbol": "=", "pIC50": 5.02}
{"smiles_entry": "COC(=O)/C(=C/c1ccc(OC)cc1)Cn1cnnn1", "qualifier_symbol": "=", "pIC50": 5.25}
